- assayedSystem: UniProtKB Q9F663
propertyLabel: Kd (µM)

> print(dat)
                               smilesrecord  propertylabel  assayvalue
1  C[C@@H](O)[C@H]1C(=O)N2C(C(=O)O)=C(S[C@@H]3CN[C@H](C(=O)N(C)C)C3)[C@H](C)[C@H]12             Kd         3.7

###

- assayedSystem: KPC-2^G89D (Klebsiella pneumoniae, UniProt Q9F663, G88D)
- Sequence (Q9F663 25-293 G88D): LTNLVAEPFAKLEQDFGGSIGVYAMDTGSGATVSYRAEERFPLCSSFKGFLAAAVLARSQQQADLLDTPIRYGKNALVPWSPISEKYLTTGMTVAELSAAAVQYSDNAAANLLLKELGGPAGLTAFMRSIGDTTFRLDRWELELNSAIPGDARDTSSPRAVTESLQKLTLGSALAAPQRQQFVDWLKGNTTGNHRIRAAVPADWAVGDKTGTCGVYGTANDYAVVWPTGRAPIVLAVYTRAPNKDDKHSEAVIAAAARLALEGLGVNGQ
- testName: Pre-steady-state (stopped-flow tryptophan fluorescence) binding kinetics, KPC-2^G89D
propertyLabel: Kd

> print(dat)
                               smilesrecord                             assayedsystem  assayvalue
1  C[C@@H](O)[C@H]1C(=O)N2C(C(=O)O)=C(S[C@@H]3CN[C@H](C(=O)N(C)C)C3)[C@H](C)[C@H]12  KPC-2^G89D (Klebsiella pneumoniae, UniProt Q9F663, G88D)      5.9 µM
